B1: tRNA (parent)
chain: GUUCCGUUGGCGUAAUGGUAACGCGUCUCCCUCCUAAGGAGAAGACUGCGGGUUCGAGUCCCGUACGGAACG

# Variants of: B1
# EXPERIMENT: yeast fitness relative to wild type (ratio to wild type); higher = fitter; tRNA-Arg(CCU), competitive growth, 37 C, YPD
Variants at the floor of the assay were thinned out.

VARIANT IDENTIFIER	COMPARISON SYMBOL	yeast fitness
U19G C55G A69U	=	0.54
U2C U13C C27A C61U	≤	0.5
G6C U7G C24U C27A A57G	≤	0.5
U35C A45C C49G	=	0.562
G17U A57G A69C	≤	0.5
A15G G18A U54A	≤	0.5
C4U U7A	=	0.743
C5A U19A G68C	=	0.539
A14C C24A A37G C60U	≤	0.5
G23C G39C G50A G68C	≤	0.5
G17A G25A C31G G68A	≤	0.5
G50A C55U A65G	≤	0.5
C5U U7A U35A A36U A45U	≤	0.5
C4G G25C C46U G50A	=	0.636
C5G G25A A65G	=	0.763
A45G U59C	=	1.03
A20C C22U C61G	≤	0.5
C4U G12C C49G	=	0.533
C31A G38A A65G	=	0.591
U54C G58A	=	0.834
C27U U53C G63A	≤	0.5
C29U G39A G67A	=	0.565
